Recorded cytotoxicity at 10 µM values for a group of compounds are listed next.
- RUN DESCRIPTION: Toxicity liver stage against HepG2, at 10uM
- Assay type: cell-based
- Parameters: test concentration 10 uM, cell line HepG2-A16-CD81EGFP
- CONDITIONS: human, HepG2-A16-CD81EGFP cells; read-out: INHIBITION
READOUT NAME: cytotoxicity at 10 µM (%)

>>> experimental_result("CCSCCC(=O)Nc1ncn(Cc2cccnc2)n1")
25.1
>>> experimental_result("Cc1noc(C)c1CNC(=O)N1CCC(C(O)c2ccccc2)CC1 (configuration not stated)")
-9.41
>>> experimental_result("Cc1ccc(S(=O)(=O)N2C[C@H](C3CC3)[C@@H](N)C2)cc1F")
-3.25
>>> experimental_result("CCN(CC)c1ccc(CNC(=O)C2(C)CCOCC2)cc1F")
-4.08
>>> experimental_result("CNCc1cc(F)ccc1Oc1ccc(F)cc1")
-1
>>> experimental_result("Fc1cnc(N2CCN3C[C@H](Oc4cccnc4)C[C@H]3C2)nc1")
13.1
>>> experimental_result("Cc1nc(CN2C(=O)C[C@H]3[C@H]2CCN3CC2CCOC2)cs1 (some centres not stated)")
-151
>>> experimental_result("Cc1cnc2c(c1)N(C(=O)c1ccc(=O)n(C)c1)CCO2")
0.965
>>> experimental_result("CNC(=O)NC(C)c1nc(-c2ccccc2)c[nH]1 (configuration not stated)")
0.995
>>> experimental_result("O=C(NCc1ccco1)[C@H]1C[C@@H]2CCN(c3ncccn3)C[C@H]2O1")
7.1
>>> experimental_result("COc1ccc(C)cc1C(C)NC(=O)CCn1cncn1 (configuration not stated)")
-7.82
>>> experimental_result("O=C1N(CC2CC2)CCC12CCN(Cc1ccoc1)CC2")
-0.302
